test: Stability of compound in simulated gastric fluid at pH 1.2 assessed as parent compound remaining measured after 120 mins by LC-MS/MS analysis; assay type: physicochemical; details: read-out: Stability
quantity: remaining at 2 h

So for CC1=C(C(=O)Nc2ccc(-c3nc4ccccc4c(=O)n3C)cc2)C(c2ccc(Cl)cc2Cl)NC(=O)N1 (stereo unspecified) , the logged remaining at 2 h turned out to be ≥ 60%

----------
experiment: Thermodynamic solubility of compound in HCL buffer at pH 1.2 measured for 24 hrs by HPLC analysis; format: physicochemical; details: read-out: Therm_solubility
quantity: solubility thermodynamic at 24 h (µg/mL)
Express the result in µg/mL but write the number alone.

So for CC1=C(C(=O)Nc2ccc(-c3nc4ccccc4c(=O)n3C)cc2)C(c2ccc(Cl)cc2Cl)NC(=O)N1 (stereo unspecified) , the logged solubility thermodynamic at 24 h turned out to be 23.8
